The entries below are paired with their reported MIC80.
- System: Aspergillus fumigatus
- assay.procedure: Antifungal activity against Aspergillus fumigatus 231 after 48 hrs by microdilution method
- Assay type: functional
- condition.description: Aspergillus fumigatus, 231, 48 h
Field format: number, assumed µM, no unit text.

Use the examples below as a reference point.
O=C1OC(COc2cccc(C(=O)O)c2)C=C1c1ccc(Br)cc1 (stereo unspecified) :: 7.81
O=C1OCC=C1c1ccc(Br)cc1 :: 500
O=C1O/C(=C\CO)C=C1c1ccc(Br)cc1 :: 15.6

Note down MIC80 recorded for CC(=O)OCC1C=C(c2ccc(Br)cc2)C(=O)O1 (stereo unspecified)
3.91

Tell me its MIC80 given COc1ccc(OCC2C=C(c3ccc(Br)cc3)C(=O)O2)cc1 (stereo unspecified) as the entry.
7.81

----------
Quick reference: MIC80 of the listed items.
- Test system: Aspergillus fumigatus
- assay.procedure: Antifungal activity against Aspergillus fumigatus 231 after 48 hrs by microdilution method
- Assay type: functional
- condition.description: Aspergillus fumigatus, 231, 48 h
Only the number, expressed in µM, is required.

See these solved cases before continuing.
COC(=O)c1ccc(OCC2C=C(c3ccc(Br)cc3)C(=O)O2)cc1 (stereo not given) :: 7.81
O=C1O/C(=C\CCO)C=C1c1ccc(Br)cc1 :: 250

Turning now to a further compound:
Hello, please tell me recorded MIC80 for this one: CCOCC1C=C(c2ccc(Br)cc2)C(=O)O1 (stereo not given)
125

----------
- Test system: Candida parapsilosis
- assay.procedure: Antifungal activity against Candida parapsilosis ATCC 22019 after 48 hrs by microdilution method
- Assay type: functional
- condition.description: Lodderomyces parapsilosis, ATCC 22019, 48 h
Measured MIC80 by item
The response must be a number in µM with no trailing unit.

# count of solved cases: 4
CC(=O)OC/C=C1/C=C(c2ccc(Br)cc2)C(=O)O1 :: 62.5
O=C1OC(COc2ccc(C(=O)O)cc2)C=C1c1ccc(Br)cc1 (stereo not drawn) :: 15.6
O=C1OC(COc2cccc(Br)c2)C=C1c1ccc(Br)cc1 (stereo not drawn) :: 31.2
COc1ccc(OCC2C=C(c3ccc(Br)cc3)C(=O)O2)cc1 (stereo not drawn) :: 15.6

Determine from records and report MIC80 for OC(Cn1cncn1)(Cn1cncn1)c1ccc(F)cc1F [FLUCONAZOLE]
13

Please give the documented MIC80 of `C=C1C=C(c2ccc(Br)cc2)C(=O)O1`
15.6

For the compound O=C1OC(COc2cccc(C(=O)O)c2)C=C1c1ccc(Br)cc1 (stereo not drawn) , give its reported MIC80.
15.6

Indicate the recorded MIC80 value for this compound: `O=C1O/C(=C\CO)C=C1c1ccc(Br)cc1`
62.5

Give MIC80 for COCC1C=C(c2ccc(Br)cc2)C(=O)O1 (stereo not drawn)
250

Please give measured MIC80 of the following entry: `O=C1OCC=C1c1ccc(Br)cc1`
500

----------
- Tested on: Trichophyton mentagrophytes
- assay.procedure: Antifungal activity against Trichophyton mentagrophytes 445 after 120 hrs by microdilution method
- Format: functional
- condition.description: Trichophyton mentagrophytes, 445, 120 h
Measured MIC80 values are reported for all entries that follow.
Respond with the bare value in µM.

Worked examples follow.
O=C1O/C(=C\CCCO)C=C1c1ccc(Br)cc1 :: 62.5
CC(=O)OCC1C=C(c2ccc(Br)cc2)C(=O)O1 (configuration not stated) :: 3.9
O=C1OC(COc2ccc(O)cc2)C=C1c1ccc(Br)cc1 (configuration not stated) :: 1.95

Return MIC80 (reported value) for this molecule: COCC1C=C(c2ccc(Br)cc2)C(=O)O1 (configuration not stated)
31.2

Source listed as ChEMBL document CHEMBL1157589.
